# assayed-system: FimH-CRD (Escherichia coli, UniProt P08191)
# Construct: The first 177 amino acids of the FimH protein; thrombin tag (printed as 'fusion protein with thrombin') (cleaved yes)
# Sequence (P08191 22-177): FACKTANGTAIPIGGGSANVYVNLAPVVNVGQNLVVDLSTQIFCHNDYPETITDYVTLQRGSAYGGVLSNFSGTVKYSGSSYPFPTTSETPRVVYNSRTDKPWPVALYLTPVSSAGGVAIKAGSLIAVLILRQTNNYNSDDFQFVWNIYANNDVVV
# assay-notes: Competitive binding assay by fluorescence polarization, assay 1 (compounds prepared by manual serial dilution)
Collected pIC50 values appear next to each entry.
Units for pIC50: none; it is -log10 of a concentration expressed in mol/L.

Study these solved cases before continuing.
line_notation=OC[C@H]1O[C@H](c2cc(O)ccc2Cl)[C@@H](O)[C@@H](O)[C@@H]1O assayed_system="FimH-CRD (Escherichia coli, UniProt P08191)" value=7.66
line_notation=CNC(=O)c1ccc(-c2cccc([C@H]3O[C@H](CO)[C@@H](O)[C@H](O[C@H]4O[C@H](CO)[C@@H](O)[C@H](O)[C@@H]4O)[C@@H]3O)c2)cc1 assayed_system="FimH-CRD (Escherichia coli, UniProt P08191)" value=7.55

[Q] Recorded pIC50 for `OC[C@H]1O[C@H](c2cccc(Oc3ccc(F)cc3)c2)[C@@H](O)[C@@H](O)[C@@H]1O` , please?
[A] 7.12

[Q] Again, but for `CNC(=O)c1cccc(Oc2cccc([C@H]3O[C@H](CO)[C@@H](O)[C@H](O[C@H]4O[C@H](CO)[C@@H](O)[C@H](O)[C@@H]4O)[C@@H]3O)c2)c1`
[A] 8.00

[Q] Again, but for `OC[C@H]1O[C@H](c2ccc(Cl)c(O)c2)[C@@H](O)[C@@H](O)[C@@H]1O`
[A] 6.97

[Q] Again, but for `COC(=O)c1cc(Oc2cccc([C@H]3O[C@H](CO)[C@@H](O)[C@H](O)[C@@H]3O)c2)cc(C(=O)OC)c1`
[A] 7.48

[Q] Again, but for `COc1ccc([C@H]2O[C@H](CO)[C@@H](O)[C@H](O[C@H]3O[C@H](CO)[C@@H](O)[C@H](O)[C@@H]3O)[C@@H]2O)cc1O`
[A] 6.76

[Q] Again, but for `Cc1nnc(NC(=O)c2cccc([C@H]3O[C@H](CO)[C@@H](O)[C@H](O)[C@@H]3O)c2)s1`
[A] 7.44

[Q] Again, but for `CCCc1ccc(NC(=O)c2cccc([C@H]3O[C@H](CO)[C@@H](O)[C@H](O)[C@@H]3O)c2)cc1`
[A] 7.08

[Q] Again, but for `OC[C@H]1O[C@H](O[C@@H]2[C@H](O)[C@@H](c3cccc(Oc4ccccc4)c3)O[C@H](CO)[C@H]2O)[C@@H](O)[C@@H](O)[C@@H]1O`
[A] 7.57

[Q] Again, but for `CC(=O)Nc1cccc(-c2cccc([C@H]3O[C@H](CO)[C@@H](O)[C@H](O)[C@@H]3O)c2)c1`
[A] 7.15

[Q] Again, but for `COC(=O)c1cccc(Oc2ccc([C@H]3O[C@H](CO)[C@@H](O)[C@H](O)[C@@H]3O)cc2)c1`
[A] 7.85

[Q] Again, but for `COc1cccc([C@H]2O[C@H](CO)[C@@H](O)[C@H](O[C@H]3O[C@H](CO)[C@@H](O)[C@H](O)[C@@H]3O)[C@@H]2O)c1`
[A] 7.31

====

# assayed-system: FimH-CRD (Escherichia coli)
# Construct: The first 177 amino acids of the FimH protein; thrombin tag (printed as 'fusion protein with thrombin') (cleaved yes); made in house; host or cells: bacteria (pET21b plasmid)
# assay-notes: Competitive binding assay by fluorescence polarization, assay 1 (compounds prepared by manual serial dilution)
Flag rule - Kd less than 10 nM flags satisfied; the remaining entries get not satisfied.

Solved entries (count: 5):
line_notation=OC[C@H]1O[C@H](O[C@@H]2[C@H](O)[C@@H](c3cccc(OCC4CCCC4)c3)O[C@H](CO)[C@H]2O)[C@@H](O)[C@@H](O)[C@@H]1O assayed_system="FimH-CRD (Escherichia coli)" category="not satisfied"
line_notation=OC[C@H]1O[C@H](c2cccc(-c3cc4ccccc4s3)c2)[C@@H](O)[C@@H](O)[C@@H]1O assayed_system="FimH-CRD (Escherichia coli)" category=satisfied
line_notation=CNC(=O)c1ccc(Oc2cccc([C@H]3O[C@H](CO)[C@@H](O)[C@H](O[C@H]4O[C@H](CO)[C@@H](O)[C@H](O)[C@@H]4O)[C@@H]3O)c2)cc1 assayed_system="FimH-CRD (Escherichia coli)" category="not satisfied"
line_notation=CCCc1ccc(NC(=O)c2cccc([C@H]3O[C@H](CO)[C@@H](O)[C@H](O)[C@@H]3O)c2)cc1 assayed_system="FimH-CRD (Escherichia coli)" category="not satisfied"
line_notation=O=C(NCC1CC1)c1cccc([C@H]2O[C@H](CO)[C@@H](O)[C@H](O)[C@@H]2O)c1 assayed_system="FimH-CRD (Escherichia coli)" category="not satisfied"

Next, consider the following compound.
[Q] Please indicate whether the reported Kd of `CNC(=O)c1cc(C(=O)NC)cc(-c2cccc([C@H]3O[C@H](CO)[C@@H](O)[C@H](O[C@H]4O[C@H](CO)[C@@H](O)[C@H](O)[C@@H]4O)[C@@H]3O)c2)c1` is strictly below 10 nM.
[A] not satisfied

====

# assayed-system: FimH-CRD (Escherichia coli)
# Construct: The first 177 amino acids of the FimH protein; thrombin tag (printed as 'fusion protein with thrombin') (cleaved yes); made in house; host or cells: bacteria (pET21b plasmid)
# assay-notes: Competitive binding assay by fluorescence polarization, assay 1 (compounds prepared by manual serial dilution)
readout-label: Kd (nM)
Use nM as the unit, but write only the number.

Study these solved cases before continuing.
compound="CNC(=O)c1cccc(-c2ccccc2[C@H]2O[C@H](CO)[C@@H](O)[C@H](O)[C@@H]2O)c1 [Compound 39]" readout_label=Kd value=396
compound="O=C(NC1CC1)c1cccc([C@H]2O[C@H](CO)[C@@H](O)[C@H](O)[C@@H]2O)c1 [Compound 36]" readout_label=Kd value=53.2
compound="OC[C@H]1O[C@H](c2cccc(C#Cc3cc(Cl)cc(Cl)c3)c2)[C@@H](O)[C@@H](O)[C@@H]1O [Compound 92]" readout_label=Kd value=24.9
compound="OC[C@H]1O[C@H](c2cccc(-c3ccsc3)c2)[C@@H](O)[C@@H](O)[C@@H]1O [Compound 8]" readout_label=Kd value=40.1
compound="Cc1nnc(-c2ccc(C#Cc3cccc([C@H]4O[C@H](CO)[C@@H](O)[C@H](O)[C@@H]4O)c3)cc2)o1 [Compound 133]" readout_label=Kd value=6.1
compound="CS(=O)(=O)c1ccc(-c2cccc([C@H]3O[C@H](CO)[C@@H](O)[C@H](O)[C@@H]3O)c2)cc1 [Compound 21]" readout_label=Kd value=12.3
compound="CC(C)C(=O)Nc1ccc(-c2cccc([C@H]3O[C@H](CO)[C@@H](O)[C@H](O)[C@@H]3O)c2)cc1 [Compound 49]" readout_label=Kd value=6.3
compound="COc1ccc(Br)cc1[C@H]1O[C@H](CO)[C@@H](O)[C@H](O)[C@@H]1O [Compound 41]" readout_label=Kd value=47.8

[Q] Recorded Kd for COc1ccc([C@H]2O[C@H](CO)[C@@H](O)[C@H](O[C@H]3O[C@H](CO)[C@@H](O)[C@H](O)[C@@H]3O)[C@@H]2O)cc1O [Compound 289] , please?
[A] 162

[Q] Again, but for OC[C@H]1O[C@H](O[C@H]2[C@H](O)[C@@H](CO)O[C@H](C/C=C/C3CCCCC3)[C@H]2O)[C@@H](O)[C@@H](O)[C@@H]1O [Compound 282]
[A] 40.6

====

# assayed-system: FimH-CRD (Escherichia coli, UniProt P08191)
# Construct: The first 177 amino acids of the FimH protein; thrombin tag (printed as 'fusion protein with thrombin') (cleaved yes); made in house; host or cells: bacteria (pET21b plasmid)
# assay-notes: Competitive binding assay by fluorescence polarization, assay 2 (compounds prepared by robotics, plates frozen and thawed)
Collected Kd values appear next to each entry.

compound="CS(=O)(=O)c1ccc2[nH]c(-c3cccc([C@H]4O[C@H](CO)[C@@H](O)[C@H](O)[C@@H]4O)c3)nc2c1 [Compound 169]" value="25.7 nM"
compound="CNC(=O)Cn1cnc2cc(-c3cccc([C@H]4O[C@H](CO)[C@@H](O)[C@H](O)[C@@H]4O)c3)ccc21 [Compound 152]" value="43.8 nM"
compound="CNC(=O)c1cc(C#Cc2cccc([C@H]3O[C@H](CO)[C@@H](O)[C@H](O)[C@@H]3O)c2C)cc(C(=O)NC)c1 [Compound 90]" value="20.3 nM"

Now look at this entry.
[Q] Recorded Kd for OC[C@H]1OC(c2cccc(OCCCCC(F)(F)F)c2)[C@@H](O)[C@@H](O)[C@@H]1O (stereo partly shown) [Compound 209] , please?
[A] 12.5 nM

====

# assayed-system: FimH-CRD (Escherichia coli, UniProt P08191)
# Construct: The first 177 amino acids of the FimH protein; thrombin tag (printed as 'fusion protein with thrombin') (cleaved yes); made in house; host or cells: bacteria (pET21b plasmid)
# assay-notes: Competitive binding assay by fluorescence polarization, assay 1 (compounds prepared by manual serial dilution)
readout-label: Kd (µM)
Use µM as the unit, but write only the number.

line_notation=COC(=O)COc1cccc([C@H]2O[C@H](CO)[C@@H](O)[C@H](O[C@H]3O[C@H](CO)[C@@H](O)[C@H](O)[C@@H]3O)[C@@H]2O)c1 assayed_system="FimH-CRD (Escherichia coli, UniProt P08191)" value=0.0174
line_notation=O=C(Nc1ccc(F)cc1)Oc1cccc([C@H]2O[C@H](CO)[C@@H](O)[C@H](O)[C@@H]2O)c1 assayed_system="FimH-CRD (Escherichia coli, UniProt P08191)" value=0.0116

Now look at this entry.
[Q] Recorded Kd for `Cc1nnc(-c2ccc(Oc3cccc([C@H]4O[C@H](CO)[C@@H](O)[C@H](O[C@H]5O[C@H](CO)[C@@H](O)[C@H](O)[C@@H]5O)[C@@H]4O)c3)cc2)o1` , please?
[A] 0.0127

Measured values drawn from patent US20130261077A1 for this set.
